# EXPERIMENTAL PROTOCOL: Formation of formazan dyes: control buffer, malate and 1-Methoxy PMS (TABLE 22)
# Assay type: biochemical
Below: a set of entries, each annotated with reported Means absorbance 1 h.
I'd appreciate a reply containing only the number, no unit.

The compound listed as COc1cc(-c2ccc(-n3nc(-c4ccccc4)n[n+]3-c3ccc([N+](=O)[O-])cc3)c(OC)c2)ccc1-n1nc(-c2ccccc2)n[n+]1-c1ccc([N+](=O)[O-])cc1 [Nitro-TB] has a reported Means absorbance 1 h of 0.16

The compound listed as COc1cc(-c2ccc(-[n+]3nc(-c4ccc(C(=O)N(CCS(=O)(=O)[O-])CCS(=O)(=O)[O-])cc4)nn3-c3nc4ccccc4s3)c(OC)c2)ccc1-[n+]1nc(-c2ccc(C(=O)N(CCS(=O)(=O)[O-])CCS(=O)(=O)[O-])cc2)nn1-c1nc2ccccc2s1.[Na+].[Na+] [WST-5] has a reported Means absorbance 1 h of 0.15

The compound listed as COc1cc([N+](=O)[O-])ccc1-[n+]1nc(-c2ccc(S(=O)(=O)[O-])cc2S(=O)(=O)[O-])nn1-c1ccc([N+](=O)[O-])cc1.[Na+] [WST-8] has a reported Means absorbance 1 h of 0.20

The compound listed as COc1cc([N+](=O)[O-])c(S(=O)(=O)[O-])cc1-n1nc(C(=O)Nc2ccccc2)n[n+]1-c1cc(S(=O)(=O)O)c([N+](=O)[O-])cc1OC [XTT] has a reported Means absorbance 1 h of 0.48

The compound listed as O=[N+]([O-])c1ccc(-[n+]2nc(-c3ccc(S(=O)(=O)[O-])cc3S(=O)(=O)[O-])nn2-c2ccc(I)cc2)cc1.[Na+] [WST-1] has a reported Means absorbance 1 h of 0.31

----------
# System: diaphorase
# EXPERIMENTAL PROTOCOL: Formation of formazan dyes: only diaphorase and malate (TABLE 14)
# Type: biochemical, Clostridium kluyveri
# SETTINGS: 6 h, mean of three experiments
MEASURE NAME: Absorbance, formation of formazan dyes (Means)
I'd appreciate a reply containing only the number, no unit.

// assay diaphorase, entry `Cc1nc(-[n+]2nc(-c3cccc(OCC(=O)O)c3)nn2-c2ccc(S(=O)(=O)[O-])cc2)sc1C` , Absorbance, formation of formazan dyes (Means) value = 0.57

// assay diaphorase, entry `O=[N+]([O-])c1ccc(-[n+]2nc(-c3ccc(S(=O)(=O)[O-])cc3S(=O)(=O)[O-])nn2-c2ccc(I)cc2)cc1.[Na+]` , Absorbance, formation of formazan dyes (Means) value = 0.25

// assay diaphorase, entry `COc1cc([N+](=O)[O-])c(S(=O)(=O)[O-])cc1-n1nc(C(=O)Nc2ccccc2)n[n+]1-c1cc(S(=O)(=O)O)c([N+](=O)[O-])cc1OC` , Absorbance, formation of formazan dyes (Means) value = 0.57

// assay diaphorase, entry `COc1cc([N+](=O)[O-])ccc1-[n+]1nc(-c2ccc(S(=O)(=O)[O-])cc2S(=O)(=O)[O-])nn1-c1ccc([N+](=O)[O-])cc1.[Na+]` , Absorbance, formation of formazan dyes (Means) value = 0.26

// assay diaphorase, entry `COc1cc(-c2ccc(-[n+]3nc(-c4ccc(C(=O)N(CCS(=O)(=O)[O-])CCS(=O)(=O)[O-])cc4)nn3-c3nc4ccccc4s3)c(OC)c2)ccc1-[n+]1nc(-c2ccc(C(=O)N(CCS(=O)(=O)[O-])CCS(=O)(=O)[O-])cc2)nn1-c1nc2ccccc2s1.[Na+].[Na+]` , Absorbance, formation of formazan dyes (Means) value = 0.23

----------
# Tested on: oral lavage
# EXPERIMENTAL PROTOCOL: Formation of formazan dyes: oral lavage, malate and diaphorase (TABLE 12)
# Format: biochemical, human
# SETTINGS: oral lavage, malate and diaphorase; 10 h
Below: a set of entries, each annotated with reported Formation of formazan dyes, absorbance, Means 10 h.
I'd appreciate a reply containing only the number, no unit.

Would you please look over these solved cases?
// assay oral lavage, entry `Cc1nc(-[n+]2nc(-c3cccc(OCC(=O)O)c3)nn2-c2ccc(S(=O)(=O)[O-])cc2)sc1C` , Formation of formazan dyes, absorbance, Means 10 h value = 2.10

// assay oral lavage, entry `O=[N+]([O-])c1ccc(-[n+]2nc(-c3ccc(S(=O)(=O)[O-])cc3S(=O)(=O)[O-])nn2-c2ccc(I)cc2)cc1.[Na+]` , Formation of formazan dyes, absorbance, Means 10 h value = 1.61

New cases:
// assay oral lavage, entry `COc1cc([N+](=O)[O-])c(S(=O)(=O)[O-])cc1-n1nc(C(=O)Nc2ccccc2)n[n+]1-c1cc(S(=O)(=O)O)c([N+](=O)[O-])cc1OC` , Formation of formazan dyes, absorbance, Means 10 h value = 1.90

----------
# Tested on: Malate dehydrogenase and diaphorase
# EXPERIMENTAL PROTOCOL: Formation of formazan dyes: Malate dehydrogenase and diaphorase, absence of malate (TABLE 9)
# Format: biochemical, pig heart
# SETTINGS: Malate dehydrogenase and diaphorase, absence of malate; 8 h
Kindly apply the following: 1 if Formation of formazan dyes, absorbance, Means 8 h is less than 0.6, 0 in every other case.

Reference set, count: 3
In: I wonder whether COc1cc([N+](=O)[O-])ccc1-[n+]1nc(-c2ccc(S(=O)(=O)[O-])cc2S(=O)(=O)[O-])nn1-c1ccc([N+](=O)[O-])cc1.[Na+] [WST-8] has Formation of formazan dyes, absorbance, Means 8 h below 0.6. Can you tell?
Out: 0

In: I wonder whether O=[N+]([O-])c1ccc(-[n+]2nc(-c3ccc(S(=O)(=O)[O-])cc3S(=O)(=O)[O-])nn2-c2ccc(I)cc2)cc1.[Na+] [WST-1] has Formation of formazan dyes, absorbance, Means 8 h below 0.6. Can you tell?
Out: 0

In: I wonder whether COc1cc(-c2ccc(-[n+]3nc(-c4ccc(C(=O)N(CCS(=O)(=O)[O-])CCS(=O)(=O)[O-])cc4)nn3-c3nc4ccccc4s3)c(OC)c2)ccc1-[n+]1nc(-c2ccc(C(=O)N(CCS(=O)(=O)[O-])CCS(=O)(=O)[O-])cc2)nn1-c1nc2ccccc2s1.[Na+].[Na+] [WST-5] has Formation of formazan dyes, absorbance, Means 8 h below 0.6. Can you tell?
Out: 0

New cases:
In: I wonder whether COc1cc([N+](=O)[O-])c(S(=O)(=O)[O-])cc1-n1nc(C(=O)Nc2ccccc2)n[n+]1-c1cc(S(=O)(=O)O)c([N+](=O)[O-])cc1OC [XTT] has Formation of formazan dyes, absorbance, Means 8 h below 0.6. Can you tell?
Out: 1

In: I wonder whether Cc1nc(-[n+]2nc(-c3cccc(OCC(=O)O)c3)nn2-c2ccc(S(=O)(=O)[O-])cc2)sc1C [MTS] has Formation of formazan dyes, absorbance, Means 8 h below 0.6. Can you tell?
Out: 1

----------
# Test system: oral lavage
# EXPERIMENTAL PROTOCOL: Formation of formazan dyes: oral lavage and diaphorase, not malate (TABLE 11)
# Type: biochemical, human
# SETTINGS: oral lavage and diaphorase, not malate; 0 h
Kindly apply the following: Satisfied if Formation of formazan dyes, absorbance, Means 0 h is less than 0.7, Not satisfied in every other case.

Reference set, count: 3
In: I wonder whether `COc1cc(-c2ccc(-[n+]3nc(-c4ccc(C(=O)N(CCS(=O)(=O)[O-])CCS(=O)(=O)[O-])cc4)nn3-c3nc4ccccc4s3)c(OC)c2)ccc1-[n+]1nc(-c2ccc(C(=O)N(CCS(=O)(=O)[O-])CCS(=O)(=O)[O-])cc2)nn1-c1nc2ccccc2s1.[Na+].[Na+]` has Formation of formazan dyes, absorbance, Means 0 h below 0.7. Can you tell?
Out: Satisfied

In: I wonder whether `O=[N+]([O-])c1ccc(-[n+]2nc(-c3ccc(S(=O)(=O)[O-])cc3S(=O)(=O)[O-])nn2-c2ccc(I)cc2)cc1.[Na+]` has Formation of formazan dyes, absorbance, Means 0 h below 0.7. Can you tell?
Out: Not satisfied

In: I wonder whether `COc1cc([N+](=O)[O-])c(S(=O)(=O)[O-])cc1-n1nc(C(=O)Nc2ccccc2)n[n+]1-c1cc(S(=O)(=O)O)c([N+](=O)[O-])cc1OC` has Formation of formazan dyes, absorbance, Means 0 h below 0.7. Can you tell?
Out: Not satisfied

New cases:
In: I wonder whether `COc1cc([N+](=O)[O-])ccc1-[n+]1nc(-c2ccc(S(=O)(=O)[O-])cc2S(=O)(=O)[O-])nn1-c1ccc([N+](=O)[O-])cc1.[Na+]` has Formation of formazan dyes, absorbance, Means 0 h below 0.7. Can you tell?
Out: Satisfied

----------
# System: oral lavage
# EXPERIMENTAL PROTOCOL: Formation of formazan dyes: oral lavage, malate and diaphorase (TABLE 12)
# Assay type: biochemical, human
# SETTINGS: oral lavage, malate and diaphorase; 1 h
MEASURE NAME: Formation of formazan dyes, absorbance, Means 1 h
I'd appreciate a reply containing only the number, no unit.

// assay oral lavage, entry `Cc1nc(-[n+]2nc(-c3cccc(OCC(=O)O)c3)nn2-c2ccc(S(=O)(=O)[O-])cc2)sc1C` , Formation of formazan dyes, absorbance, Means 1 h value = 0.93

// assay oral lavage, entry `COc1cc(-c2ccc(-[n+]3nc(-c4ccc(C(=O)N(CCS(=O)(=O)[O-])CCS(=O)(=O)[O-])cc4)nn3-c3nc4ccccc4s3)c(OC)c2)ccc1-[n+]1nc(-c2ccc(C(=O)N(CCS(=O)(=O)[O-])CCS(=O)(=O)[O-])cc2)nn1-c1nc2ccccc2s1.[Na+].[Na+]` , Formation of formazan dyes, absorbance, Means 1 h value = 0.74

// assay oral lavage, entry `COc1cc([N+](=O)[O-])ccc1-[n+]1nc(-c2ccc(S(=O)(=O)[O-])cc2S(=O)(=O)[O-])nn1-c1ccc([N+](=O)[O-])cc1.[Na+]` , Formation of formazan dyes, absorbance, Means 1 h value = 0.70

New cases:
// assay oral lavage, entry `O=[N+]([O-])c1ccc(-[n+]2nc(-c3ccc(S(=O)(=O)[O-])cc3S(=O)(=O)[O-])nn2-c2ccc(I)cc2)cc1.[Na+]` , Formation of formazan dyes, absorbance, Means 1 h value = 1.19

// assay oral lavage, entry `COc1cc([N+](=O)[O-])c(S(=O)(=O)[O-])cc1-n1nc(C(=O)Nc2ccccc2)n[n+]1-c1cc(S(=O)(=O)O)c([N+](=O)[O-])cc1OC` , Formation of formazan dyes, absorbance, Means 1 h value = 0.88
